- target-under-test: his-labeled human IL-13 (immunogen A) (human) (UniProt P35225)
- assay-overview: cell-based or functional assay
measurement-label: VCAM-1 fluorescence intensity, HUVEC + IL-13 0.5 ng/mL + TNFα; antibody at 2.67 nM

{"binder": "c29D9H8 (mouse-human chimeric IL-13 antibody) (antibody, V domains shown) VH: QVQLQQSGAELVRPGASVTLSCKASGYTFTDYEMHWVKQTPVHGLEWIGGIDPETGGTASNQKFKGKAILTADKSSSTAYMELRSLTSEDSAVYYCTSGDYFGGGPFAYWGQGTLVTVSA VL: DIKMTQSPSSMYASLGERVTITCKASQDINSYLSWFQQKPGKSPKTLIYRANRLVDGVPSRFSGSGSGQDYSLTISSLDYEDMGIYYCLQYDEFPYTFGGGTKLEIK", "reported": 246}
{"binder": "c35E2C3 (mouse-human chimeric IL-13 antibody) (antibody, V domains shown) VH: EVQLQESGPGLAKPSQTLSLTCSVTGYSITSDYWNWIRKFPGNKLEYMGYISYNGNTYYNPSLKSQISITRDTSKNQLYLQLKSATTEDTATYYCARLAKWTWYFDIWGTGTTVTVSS VL: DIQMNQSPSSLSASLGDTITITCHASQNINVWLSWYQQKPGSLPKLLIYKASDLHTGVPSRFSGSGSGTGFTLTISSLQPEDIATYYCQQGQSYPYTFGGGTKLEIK", "reported": 238}
{"binder": "c70F10A10 (mouse-human chimeric IL-13 antibody) (antibody, V domains shown) VH: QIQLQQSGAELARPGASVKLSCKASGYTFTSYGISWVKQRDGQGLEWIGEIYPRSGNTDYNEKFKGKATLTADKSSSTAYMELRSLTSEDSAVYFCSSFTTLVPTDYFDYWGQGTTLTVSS VL: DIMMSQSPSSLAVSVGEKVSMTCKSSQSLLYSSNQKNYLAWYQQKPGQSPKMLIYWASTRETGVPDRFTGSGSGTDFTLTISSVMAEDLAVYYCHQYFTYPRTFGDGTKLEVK", "reported": 272}
{"binder": "c28A2E11 (mouse-human chimeric IL-13 antibody) (antibody, V domains shown) VH: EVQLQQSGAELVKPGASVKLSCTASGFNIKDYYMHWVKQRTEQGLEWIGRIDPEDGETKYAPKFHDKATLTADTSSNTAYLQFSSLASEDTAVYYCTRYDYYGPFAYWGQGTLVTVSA VL: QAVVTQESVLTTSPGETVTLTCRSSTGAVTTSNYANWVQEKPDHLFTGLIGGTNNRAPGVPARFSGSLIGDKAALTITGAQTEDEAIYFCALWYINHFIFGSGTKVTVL", "reported": 224}
